Below is a list of entries, each paired with its recorded EC50, neutralization of SARS-CoV-2 euvirus infection of VERO-E6 cells (CPE, day 4) value.
Target: SARS-CoV-2 euvirus S protein (SARS-CoV-2, UniProt P0DTC2 14-1273)
Assay: cell-based or functional assay
assay-endpoint: EC50, neutralization of SARS-CoV-2 euvirus infection of VERO-E6 cells (CPE, day 4) (µg/mL)

binder	test-value
P14-44 (antibody, V domains shown, also called candidate antibody molecule P14-44) VH: QVQLVQSGAEVKKPGASVKVSCKASGYIFTSYSMHWVRQAPGQGLEWMGTIKPSDDSTNYAQKFQGRVSMTRDTSTSTVYMELSSLRYEDTAVYYCAREARGYYDRSGYYHPGYFDYWGQGTLVTVSS VL: QSVLTQPASVSGSPGQSITISCTGTSSDVGGYNFVSWYQQHPGKAPKLMIYEVSDRPSGVSSRFSGSKSGNTASLTISGLQAEDEADYYCFSYTTSTTWVFGGGTKLTVL	0.708
P3-11 (antibody, V domains shown, also called candidate antibody molecule P3-11) VH: QVQLVESGGGLVQPGGSLRLSCAASGITVSSNYMSWVRQAPGKGLEWVSVIYSGGSTFYADPVKGRLTISRDNSKNTLYLQMNSVRVEDTAVYYCARGEGWELPFDYWGQGALVTVSS VL: QSALTQPPSASGSPGQSVTISCTGTSSDVGGNKYVSWYQQHPGKAPKLIIYEVSKRPSGVPDRFSGSKSGNTASLTVSGLQAEDEADYHCSSYAGSNNLVFGGGTKLTVL	0.195
P23-29 (antibody, V domains shown, also called candidate antibody molecule P23-29) VH: QVQLQESGPGLVKPSETLSLTCTVSGDSISSSTYYWGWIRQPPGKGLEWIGSMYYGRSTYYNPSLKSRVTVSVDTSKNQLSLKVSSVTAADTAVYYCARHLGGVDYWGQGTLVTVSS VL: DIQMTQSPSSLSASVGDRVTITCRASQGISNSLAWYQQEPGKAPKLLLYAASTLESGVPSRFSGSGSGADSTLTISSLQPEDFATYYCQQYYSASALTFGGGTKVEIK	0.0488

Hey, just so you know, these numbers are from patent US20230391854A1.
